Biological target: hTRPV1 channels (Homo sapiens)
Construct: expressed in transfected cells; host or cells: HEK (stably transfected)
Sequence (Q8NER1 whole entry): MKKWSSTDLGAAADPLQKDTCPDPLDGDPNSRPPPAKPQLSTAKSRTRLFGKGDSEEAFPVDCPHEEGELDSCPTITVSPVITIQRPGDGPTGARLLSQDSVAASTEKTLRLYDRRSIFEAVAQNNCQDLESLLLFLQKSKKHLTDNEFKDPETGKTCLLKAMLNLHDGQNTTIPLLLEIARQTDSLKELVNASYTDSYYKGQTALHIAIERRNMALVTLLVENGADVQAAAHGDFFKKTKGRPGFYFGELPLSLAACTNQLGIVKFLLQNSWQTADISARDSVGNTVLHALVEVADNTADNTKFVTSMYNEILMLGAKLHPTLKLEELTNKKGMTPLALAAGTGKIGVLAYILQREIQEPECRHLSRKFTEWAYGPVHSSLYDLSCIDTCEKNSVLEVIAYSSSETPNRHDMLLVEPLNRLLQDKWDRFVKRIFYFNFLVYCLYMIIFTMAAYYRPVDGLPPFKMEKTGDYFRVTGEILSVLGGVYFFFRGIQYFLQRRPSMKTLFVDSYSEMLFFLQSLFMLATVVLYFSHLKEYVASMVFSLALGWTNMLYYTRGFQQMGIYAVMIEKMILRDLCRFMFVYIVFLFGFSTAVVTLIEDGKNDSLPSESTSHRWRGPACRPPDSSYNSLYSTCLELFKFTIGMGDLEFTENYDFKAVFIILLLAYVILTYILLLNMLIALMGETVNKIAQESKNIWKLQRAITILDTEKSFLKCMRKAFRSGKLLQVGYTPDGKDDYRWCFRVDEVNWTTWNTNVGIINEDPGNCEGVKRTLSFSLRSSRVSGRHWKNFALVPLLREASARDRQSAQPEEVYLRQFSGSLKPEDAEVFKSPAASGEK
Test: Ca2+ microfluorometry in HEK cells expressing hTRPV1 (capsaicin)
Type: cell-based
Details: 50 µM compound, 1 µM capsaicin
reported-endpoint: TRPV1 Blockade (%) 50 µM
# answer = value followed by unit

>>> result("COC(=O)C(Cc1ccccc1)N1C[C@H](Cc2ccccc2)N(C(=O)OCc2ccccc2)CC1=O (some centres unmarked) [Compound 20ab]")
"19.3±1.2%"
>>> result("C[C@@H]1C(=O)N(C[C@H](Cc2ccccc2)NC(=O)OCc2ccccc2)[C@]1(Cc1ccccc1)C(=O)OCc1ccccc1 [Compound 24a]")
"11.8±3.2%"
>>> result("O=C(OCc1ccccc1)C(Cc1ccccc1)N1C[C@@H](Cc2ccccc2)N(C(=O)OCc2ccccc2)CC1=O (some centres unmarked) [Compound 15ab]")
"7.8±4.1%"
>>> result("C[C@H]1C(=O)N(C(Cc2ccccc2)C(=O)OCc2ccccc2)C[C@@H](Cc2ccccc2)N1C(=O)OCc1ccccc1 (some centres unmarked) [Compound 32ab]")
"6.3±2.3%"
>>> result("C[C@H]1C(=O)N(C(Cc2ccccc2)C(=O)OCc2ccccc2)C[C@H](Cc2ccccc2)N1C(=O)OCc1ccccc1 (some centres unmarked) [Compound 26ab]")
"7.3±3.2%"
>>> result("O=C(N[C@H](Cc1ccccc1)CN1C(=O)CC1(Cc1ccccc1)C(=O)OCc1ccccc1)OCc1ccccc1 (some centres unmarked) [Compound 14ab]")
"8.7±3.5%"

I looked up C[C@@H]1C(=O)N(C(Cc2ccccc2)C(=O)OCc2ccccc2)C[C@@H](Cc2ccccc2)N1C(=O)OCc1ccccc1 (some centres unmarked) [Compound 30ab] and its TRPV1 Blockade (%) 50 µM for hTRPV1 channels (Homo sapiens) was 13.9±4.8%

I looked up O=C(N[C@@H](Cc1ccccc1)CN1C(=O)CC1(Cc1ccccc1)C(=O)OCc1ccccc1)OCc1ccccc1 (some centres unmarked) [Compound 12ab] and its TRPV1 Blockade (%) 50 µM for hTRPV1 channels (Homo sapiens) was 15.3±2.8%
